Can you tell me Kd for the items I'm about to list?
Target: AChE from Electrophorus electricus (eeAChE) (Electrophorus electricus, UniProt O42275)
Construct: purchased Sigma Aldrich
Sequence (O42275 24-633): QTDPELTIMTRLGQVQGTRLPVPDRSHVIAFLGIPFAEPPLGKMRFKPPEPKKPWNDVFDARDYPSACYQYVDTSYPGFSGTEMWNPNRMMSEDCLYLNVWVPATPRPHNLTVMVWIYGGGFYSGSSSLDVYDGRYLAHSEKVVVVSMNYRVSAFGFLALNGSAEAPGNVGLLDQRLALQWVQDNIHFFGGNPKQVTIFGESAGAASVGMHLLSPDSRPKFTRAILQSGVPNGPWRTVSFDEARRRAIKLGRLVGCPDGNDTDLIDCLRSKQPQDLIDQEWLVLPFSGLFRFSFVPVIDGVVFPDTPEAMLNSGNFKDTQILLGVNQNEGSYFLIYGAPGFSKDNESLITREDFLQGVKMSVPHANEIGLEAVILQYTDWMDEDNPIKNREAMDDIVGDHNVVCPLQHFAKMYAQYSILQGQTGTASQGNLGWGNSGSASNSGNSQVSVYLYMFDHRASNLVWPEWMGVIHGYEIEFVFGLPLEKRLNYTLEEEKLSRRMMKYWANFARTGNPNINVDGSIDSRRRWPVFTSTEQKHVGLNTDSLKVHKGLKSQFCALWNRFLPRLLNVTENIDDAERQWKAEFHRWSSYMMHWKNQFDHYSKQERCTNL
Experiment: biochemical
Type: binding
Conditions: ITC, read-out: Kd
Give bare numbers, in nM.

Below are worked cases with known answers.
{"molecule": "O=C(CCn1nc(-c2ccccc2)ccc1=O)NCCc1ccccc1 [Compound 3]", "Kd / nM": 555}
{"molecule": "Cn1cc(CNCc2ccc3ncccc3c2)c(-c2ccccc2F)n1 [Compound 4]", "Kd / nM": 618}
{"molecule": "Cn1cc(CNC(=O)N2CCC(C(N)=O)CC2)c(-c2ccccc2)n1 [Compound 6]", "Kd / nM": 613}
{"molecule": "CN(Cc1ccccc1-c1ccccc1)C(=O)CCn1ccccc1=O [Compound 1]", "Kd / nM": 525}

// query Kd value for entry O=C(Cn1ccc2ccccc21)NCCOc1cccc2cccnc12 [Compound 5] 517
